- EXPERIMENTAL TARGET: UniProt Q8IXJ6
- Sequence (Q8IXJ6 whole entry): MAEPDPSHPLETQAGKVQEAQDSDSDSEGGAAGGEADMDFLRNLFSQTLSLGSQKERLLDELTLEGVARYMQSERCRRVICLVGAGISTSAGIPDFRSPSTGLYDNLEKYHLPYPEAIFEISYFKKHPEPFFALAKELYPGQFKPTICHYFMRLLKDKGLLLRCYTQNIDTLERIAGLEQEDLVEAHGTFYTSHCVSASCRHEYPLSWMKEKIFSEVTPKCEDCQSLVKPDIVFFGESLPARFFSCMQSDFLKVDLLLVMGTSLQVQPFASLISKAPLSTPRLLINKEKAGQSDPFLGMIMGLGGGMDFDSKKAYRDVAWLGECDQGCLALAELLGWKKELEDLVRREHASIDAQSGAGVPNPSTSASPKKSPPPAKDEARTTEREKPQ
Square brackets hold non-standard residues; d marks the D form. Peptide text beside a SMILES is read from it. Asu = N[C@@H](CCCCCC(=O)O)C(=O)O
MEASUREMENT LABEL: pIC50
Quick note: pIC50 values are minus log10 of concentrations in mol/L.

Incoming: # lookup: pIC50 of CC(=O)NCCCC[C@H](NC(=O)[C@H](CCCCCC(N)=O)NC(=O)[C@H](CCCCNC(C)=O)NC(C)=O)C(N)=O (Ac-Lys(Ac)-[Asu](NH2)-Lys(Ac)-NH2)
Outgoing: 3.72

* * *

Can you tell me pIC50 for the items I'm about to list?
- EXPERIMENTAL TARGET: NAD-dependent protein deacetylase sirtuin-1 (Homo sapiens, UniProt Q96EB6)
- Sequence (Q96EB6 whole entry): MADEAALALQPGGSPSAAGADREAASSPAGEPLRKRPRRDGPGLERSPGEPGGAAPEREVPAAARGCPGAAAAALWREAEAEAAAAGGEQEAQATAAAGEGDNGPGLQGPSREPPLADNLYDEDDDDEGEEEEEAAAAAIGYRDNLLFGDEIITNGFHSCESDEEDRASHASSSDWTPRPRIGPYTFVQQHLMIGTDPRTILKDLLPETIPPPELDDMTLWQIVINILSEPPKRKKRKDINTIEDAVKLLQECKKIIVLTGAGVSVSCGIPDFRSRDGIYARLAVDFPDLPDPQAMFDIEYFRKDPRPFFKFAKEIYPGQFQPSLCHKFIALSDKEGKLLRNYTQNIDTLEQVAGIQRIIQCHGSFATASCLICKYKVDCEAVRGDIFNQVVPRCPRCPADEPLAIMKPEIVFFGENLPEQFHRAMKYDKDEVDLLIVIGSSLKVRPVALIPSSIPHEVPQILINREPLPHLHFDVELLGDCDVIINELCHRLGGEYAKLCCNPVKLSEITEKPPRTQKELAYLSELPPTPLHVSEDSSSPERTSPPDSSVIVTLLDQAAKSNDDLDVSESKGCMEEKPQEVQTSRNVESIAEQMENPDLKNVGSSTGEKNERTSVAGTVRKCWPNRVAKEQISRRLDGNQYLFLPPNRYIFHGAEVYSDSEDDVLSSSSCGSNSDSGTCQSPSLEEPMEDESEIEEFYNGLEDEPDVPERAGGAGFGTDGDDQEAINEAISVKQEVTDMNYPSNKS
Square brackets hold non-standard residues; d marks the D form. Peptide text beside a SMILES is read from it. Asu = N[C@@H](CCCCCC(=O)O)C(=O)O
# pIC50: negative log10 of molar concentration; output just the value

Incoming: // query pIC50 value for entry CC(=O)NCCC[C@H](NC(=O)[C@H](CCCCNC(N)=S)NC(=O)[C@H](CCCNC(C)=O)NC(C)=O)C(N)=O
Outgoing: 4.05

Incoming: What about CC(=O)NCCCC[C@H](NC(=O)[C@H](CCCCCC(N)=O)NC(=O)[C@H](CCCCNC(C)=O)NC(C)=O)C(N)=O (Ac-Lys(Ac)-[Asu](NH2)-Lys(Ac)-NH2) ?
Outgoing: 3.54
